Target: T1, monkey MSR1 extracellular domain expressed with a N-terminal hexahistidine-myc-myc tag (HMM-mfMSR1) (monkey (Macaca fascicularis))
T1 chain: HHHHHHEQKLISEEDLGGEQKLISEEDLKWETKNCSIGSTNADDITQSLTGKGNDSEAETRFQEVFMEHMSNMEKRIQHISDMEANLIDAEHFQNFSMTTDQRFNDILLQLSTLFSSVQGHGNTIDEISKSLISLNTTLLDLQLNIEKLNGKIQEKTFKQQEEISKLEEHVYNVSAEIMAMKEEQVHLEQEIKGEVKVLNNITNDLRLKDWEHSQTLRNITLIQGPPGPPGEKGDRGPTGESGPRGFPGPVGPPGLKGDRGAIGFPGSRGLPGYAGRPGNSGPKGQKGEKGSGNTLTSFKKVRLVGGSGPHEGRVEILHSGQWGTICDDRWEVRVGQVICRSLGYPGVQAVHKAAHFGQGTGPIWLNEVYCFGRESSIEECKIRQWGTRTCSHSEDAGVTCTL
Assay: SPR Biacore, 37 C, antibody captured
Mark fulfilled for reported koff of 0.0008 s⁻¹ or greater; mark not fulfilled for anything smaller.

Query string: Does H1H27739P-N297Q (antibody, V domains shown, Human IgG1 Fc with N297Q point mutation) VH: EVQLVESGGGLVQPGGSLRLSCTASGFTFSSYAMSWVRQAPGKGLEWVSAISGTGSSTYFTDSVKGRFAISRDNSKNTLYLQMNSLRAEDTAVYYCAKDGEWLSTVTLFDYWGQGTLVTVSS VL: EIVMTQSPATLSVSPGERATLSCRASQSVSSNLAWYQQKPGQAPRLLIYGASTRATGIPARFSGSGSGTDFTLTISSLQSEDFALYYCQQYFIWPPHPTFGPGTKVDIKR have a reported koff of at least 0.0008 s⁻¹?
Result string: fulfilled

Query string: Please indicate if the recorded koff for H1H27754P-N297Q (antibody, V domains shown, Human IgG1 Fc with N297Q point mutation) VH: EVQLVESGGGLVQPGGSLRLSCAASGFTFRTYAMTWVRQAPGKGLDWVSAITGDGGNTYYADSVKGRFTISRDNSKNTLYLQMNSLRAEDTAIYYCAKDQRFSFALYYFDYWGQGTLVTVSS VL: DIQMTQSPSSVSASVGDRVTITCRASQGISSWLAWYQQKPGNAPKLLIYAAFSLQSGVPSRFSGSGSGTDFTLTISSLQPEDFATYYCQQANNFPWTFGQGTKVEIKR meets or exceeds 0.0008 s⁻¹.
Result string: not fulfilled

Query string: Evaluate H1H27747P-N297Q (antibody, V domains shown, Human IgG1 Fc with N297Q point mutation) VH: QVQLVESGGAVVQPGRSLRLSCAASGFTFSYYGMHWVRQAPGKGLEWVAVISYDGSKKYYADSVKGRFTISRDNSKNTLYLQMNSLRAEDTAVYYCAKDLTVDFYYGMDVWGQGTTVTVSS VL: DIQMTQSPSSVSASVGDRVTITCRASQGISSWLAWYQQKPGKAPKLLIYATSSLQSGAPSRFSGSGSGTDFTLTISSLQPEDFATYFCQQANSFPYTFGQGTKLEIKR : koff at minimum 0.0008 s⁻¹?
Result string: fulfilled

Query string: Item H1H27734P-N297Q (antibody, V domains shown, Human IgG1 Fc with N297Q point mutation) VH: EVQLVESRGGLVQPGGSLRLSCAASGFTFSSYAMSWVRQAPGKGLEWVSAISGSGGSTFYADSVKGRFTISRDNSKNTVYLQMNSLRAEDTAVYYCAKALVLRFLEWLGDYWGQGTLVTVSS VL: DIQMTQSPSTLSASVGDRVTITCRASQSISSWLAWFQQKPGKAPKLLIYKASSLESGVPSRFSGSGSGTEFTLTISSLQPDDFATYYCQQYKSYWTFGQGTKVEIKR with koff of 0.0008 s⁻¹ or above?
Result string: fulfilled

Query string: Kindly determine if koff recorded for H1H27729P-N297Q (antibody, V domains shown, Human IgG1 Fc with N297Q point mutation) VH: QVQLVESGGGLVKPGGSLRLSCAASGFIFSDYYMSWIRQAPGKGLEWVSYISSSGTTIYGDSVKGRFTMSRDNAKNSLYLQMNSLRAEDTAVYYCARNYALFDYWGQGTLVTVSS VL: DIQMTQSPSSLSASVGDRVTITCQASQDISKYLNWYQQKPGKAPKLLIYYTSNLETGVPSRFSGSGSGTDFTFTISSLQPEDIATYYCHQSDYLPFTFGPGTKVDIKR is above or exactly 0.0008 s⁻¹.
Result string: fulfilled

Query string: Does H1H27731P-N297Q (antibody, V domains shown, Human IgG1 Fc with N297Q point mutation) VH: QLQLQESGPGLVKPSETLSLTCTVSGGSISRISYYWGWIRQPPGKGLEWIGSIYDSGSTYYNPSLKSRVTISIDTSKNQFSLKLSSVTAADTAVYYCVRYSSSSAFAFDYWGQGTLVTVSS VL: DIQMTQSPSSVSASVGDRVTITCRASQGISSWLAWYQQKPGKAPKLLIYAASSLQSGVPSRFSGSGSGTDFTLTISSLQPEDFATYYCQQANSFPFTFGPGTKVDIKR have a reported koff of at least 0.0008 s⁻¹?
Result string: not fulfilled
